# Measurement Protocol: self-splicing fitness, log relative to wild type (ln ratio); higher = more splicing; Tetrahymena group I intron in knt gene, E. coli kanamycin selection, DiMSum; sequences stand for … in CUCUCU…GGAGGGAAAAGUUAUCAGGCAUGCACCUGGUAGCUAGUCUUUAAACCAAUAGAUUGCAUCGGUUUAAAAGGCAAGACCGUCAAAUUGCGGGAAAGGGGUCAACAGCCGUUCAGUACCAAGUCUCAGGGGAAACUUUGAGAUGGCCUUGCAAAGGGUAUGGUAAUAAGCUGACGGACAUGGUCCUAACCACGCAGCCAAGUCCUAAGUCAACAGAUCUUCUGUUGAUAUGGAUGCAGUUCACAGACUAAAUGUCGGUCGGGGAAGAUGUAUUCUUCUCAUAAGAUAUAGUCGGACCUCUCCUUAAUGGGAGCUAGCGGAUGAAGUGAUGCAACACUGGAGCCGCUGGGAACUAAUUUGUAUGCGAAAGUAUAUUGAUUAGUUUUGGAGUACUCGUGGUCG;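 further: selection with 25 µg/mL kanamycin versus none on LB agar overnight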
# Measurement Context: 30 °C
Each entry below carries its reported self-splicing fitness (ln).
Reply: number alone, nothing else.

Worked cases, self-splicing fitness (ln) given:
Ask: I am curious: what self-splicing fitness (ln) value has been reported for `ACUGAGCAAUAUUACGAAGA` ?
Result: -2.33

Ask: Need self-splicing fitness (ln) of `AACUAGCAAUAUUACGCCGA` , thanks.
Result: -1.74

Ask: I have this sequence here, `CACUAGCAAUAUUACGUCAA` , and I need its recorded self-splicing fitness (ln).
Result: -3.77

Ask: Consider the sequence shown here: `UAAGAGCAAUAUUACGUUAA` What is its recorded self-splicing fitness (ln)?
Result: -3.21

Ask: Which self-splicing fitness (ln) reading was recorded for the sequence `CGUCAGCAAUAUUACGGUGG` ?
Result: -1.26

Ask: Can you look up the measured self-splicing fitness (ln) of `AUGCAGCAAUAUUACGCCAG` for me?
Result: -2.18

New cases:
Ask: For `CGCGAGCAAUAUUACGUAAC` , what is its reported self-splicing fitness (ln)?
Result: -2.76

Ask: Could you tell me which self-splicing fitness (ln) is on file for `GACUAGCAAUAUUACGAACU` ?
Result: 0.186

Ask: Returns the measured self-splicing fitness (ln) for the input sequence. Input: `UCCGAGCAAUAUUACGGCGG`
Result: -2.11

Ask: For the sequence `AUUCAGCAAUAUUACGUAGA` , what self-splicing fitness (ln) is on record?
Result: -1.35

Ask: What measured self-splicing fitness (ln) goes with `UAUCAGCAAUAUUACGCGCU` ?
Result: -2.73

Ask: So what's the measured self-splicing fitness (ln) for this one? `CUUUAGCAAUAUUACGAGGG`
Result: -3.57

---

# Measurement Protocol: self-splicing fitness, log relative to wild type (ln ratio); higher = more splicing; Tetrahymena group I intron in knt gene, E. coli kanamycin selection, DiMSum; sequences stand for … in CUCUCU…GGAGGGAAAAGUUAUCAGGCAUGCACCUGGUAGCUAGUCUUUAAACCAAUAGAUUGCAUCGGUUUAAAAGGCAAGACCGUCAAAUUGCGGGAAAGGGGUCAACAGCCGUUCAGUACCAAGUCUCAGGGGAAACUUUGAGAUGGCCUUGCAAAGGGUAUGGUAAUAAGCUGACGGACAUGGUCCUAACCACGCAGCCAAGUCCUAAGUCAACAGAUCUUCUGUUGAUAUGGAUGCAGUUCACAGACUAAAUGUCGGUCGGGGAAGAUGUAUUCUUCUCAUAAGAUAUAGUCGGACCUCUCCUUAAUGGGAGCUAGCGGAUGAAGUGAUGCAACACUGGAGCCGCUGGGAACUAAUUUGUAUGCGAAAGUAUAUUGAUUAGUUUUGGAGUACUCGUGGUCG
# Measurement Context: 30 °C
Lab note: compare self-splicing fitness (ln) against -2. Equal or greater, write 1 (yes). Smaller, write 0 (no).

For orientation, consider the following solved cases.
Ask: Dear colleague, could you confirm whether `AUGAAGCAAUAUUACGCGAC` has self-splicing fitness (ln) at or above -2?
Result: 0 (no)

Ask: Does the sequence `CCUCAGCAAUAUUACGACAG` have recorded self-splicing fitness (ln) that is -2 or more?
Result: 1 (yes)

Ask: Hi team, for `GGUAAGCAAUAUUACGUAUU` , is the recorded self-splicing fitness (ln) at or above -2?
Result: 0 (no)

Ask: # bool: self-splicing fitness (ln) of `ACUUAGCAAUAUUACGAGCG` >= -2
Result: 1 (yes)

Ask: # bool: self-splicing fitness (ln) of `AGACAGCAAUAUUACGAUAU` >= -2
Result: 1 (yes)

---
Ask: Given `GUAUAGCAAUAUUACGUCAG` , state whether its self-splicing fitness (ln) is at least -2.
Result: 0 (no)

Ask: In plain terms: is recorded self-splicing fitness (ln) at least -2 for `CCAAAGCAAUAUUACGUGAG` ?
Result: 1 (yes)

Ask: Threshold query (self-splicing fitness (ln) >= -2) on `GCUCAGCAAUAUUACGGUGG`
Result: 0 (no)
